- Test system: 379773-124-R-J2-PDC complex spheroids, viability % test/control;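 also: compound exposure lasted seven days before the viability readout; 100% = DMSO vehicle control wells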
- test: Anticancer human tumor 379773-124-R-J2-PDC patient-derived endometrial carcinoma cell line growth inhibition [CLK]
- reported conditions: second compound 10 µM; first compound 0.01 µM; hits give low values
reported endpoint: viability, T/C

{"columns": ["compound", "viability, T/C"],
 "data": [
  ["CCN1CCN(Cc2ccc(Nc3ncc(F)c(-c4cc(F)c5nc(C)n(C(C)C)c5c4)n3)nc2)CC1 + CN1CCN(c2cc(C(=O)Nc3cc4cc(-c5cnn(C)c5)ccc4cn3)ccn2)CC1", "1.3%"],
  ["CCc1c2c(nc3ccc(O)cc13)-c1cc3c(c(=O)n1C2)COC(=O)[C@]3(O)CC + CNC(=O)c1ccc(Nc2nc(OC3CCCC3)c3c(-c4ccc5nc(C)oc5c4)c[nH]c3n2)c(OC)c1", "4.45%"],
  ["CCN1CCN(Cc2ccc(Nc3ncc(F)c(-c4cc(F)c5nc(C)n(C(C)C)c5c4)n3)nc2)CC1 + CNC(=O)c1ccc(Nc2nc(OC3CCCC3)c3c(-c4ccc5nc(C)oc5c4)c[nH]c3n2)c(OC)c1", "24.3%"],
  ["CCc1c2c(nc3ccc(O)cc13)-c1cc3c(c(=O)n1C2)COC(=O)[C@]3(O)CC + CN1CCN(c2cc(C(=O)Nc3cc4cc(-c5cnn(C)c5)ccc4cn3)ccn2)CC1", "0.11%"]
]}

Now consider a different compound.
Lookup: Could you share which viability, T/C value was measured for Cn1ncnc1[C@H]1c2n[nH]c(=O)c3cc(F)cc(c23)N[C@@H]1c1ccc(F)cc1 + CN1CCN(c2cc(C(=O)Nc3cc4cc(-c5cnn(C)c5)ccc4cn3)ccn2)CC1 ?
Found: 0.52%
